Tested on: RSV (Long)
Assay: RSV cytopathic effect (CPE)-based viral replication assay
Assay type: cell-based, respiratory syncytial virus (RSV)
Details: human respiratory syncytial virus, HEp-2, 72 h, HEp-2 cells infected with RSV Long at MOI 0.015; 3 days at 37° C.; cell viability by CellTiter-Glo luminescence; read-out: EC50 (nm)
Procedure: Example A: RSV Cytopathic Effect Compounds of the invention are initially tested in a cytopathic effect (CPE)-based viral replication assay using immortalized cells and a laboratory strain of RSV (Long). […] For the CPE assay, cells are infected at a Multiplicity of Infection (MOI) of 0.015 using 20 μL of RSV Long (ATCC) diluted in assay media. […] Cell viability is evaluated with the addition of 10 μL of CellTiter-Glo (ProMega). Luminescence is measured using an EnVision plate reader (Perkin Elmer). […]
pEC50: −log10 of the molar value.
Binarize pEC50 at 8; below is YES, at or above is NO.

Compound: COC(=O)N1CCC(n2c(=O)n(Cc3ncc4ccccc4c3CCCCO)c3cccc(Cl)c32)CC1 [Example 16]
Label Class: YES

**Q:** # TODO verify pEC50 < 8 strictly for this compound: NC(=O)N1CC2(C1)C(=O)N(Cc1ncc3ccccc3c1-c1ccc(S(N)(=O)=O)cc1)c1ccccc12 [Example 116b]
**A:** NO

**Q:** # TODO verify pEC50 < 8 strictly for this compound: CC1(n2c(=O)n(Cc3ncc4ccccc4c3-c3ccc(C4(N)COC4)nc3)c3cnccc32)CC1 [Example 2022]
**A:** YES

---

tested on: RSV (Long); experiment: RSV cytopathic effect (CPE)-based viral replication assay; type: cell-based, respiratory syncytial virus (RSV); settings: human respiratory syncytial virus, HEp-2, 72 h, HEp-2 cells infected with RSV Long at MOI 0.015; 3 days at 37° C.; cell viability by CellTiter-Glo luminescence; read-out: EC50 (nm)
// values below are reported log10 of EC50
Record value = log10 of EC50 given in nM.

Please review the entries below; each comes with its answer.
Molecule: N#Cc1ccc(-c2c(CN3C(=O)C4(CCN(C(=O)C(F)(F)F)CC4)c4ccncc43)ncc3ccccc23)cn1
Assayed System: RSV (Long)
Measured Quantity: log10 of EC50
Recorded Measurement: 0.78
//
Molecule: CS(=O)(=O)N1CC2(C1)C(=O)N(Cc1ncc3ccccc3c1-c1ccc(C#N)cc1)c1ccccc12
Assayed System: RSV (Long)
Measured Quantity: log10 of EC50
Recorded Measurement: 0.40
//
Molecule: O=C1N(Cc2ncc3ccccc3c2CCCCO)c2ccccc2C12CNC2
Assayed System: RSV (Long)
Measured Quantity: log10 of EC50
Recorded Measurement: 2.04
//
Molecule: NC1(C(=O)N2CCC3(CC2)C(=O)N(Cc2ncc4ccccc4c2CCCCO)c2cnccc23)CC1 [Example 39b]
Assayed System: RSV (Long)
Measured Quantity: log10 of EC50
Recorded Measurement: 1.54
//
Molecule: O=c1n(Cc2ncc3ccccc3c2CCCCF)c2cnccc2n1C1CC1
Assayed System: RSV (Long)
Measured Quantity: log10 of EC50
Recorded Measurement: 0.53

**Q:** // fetch log10 of EC50; item: COC(=O)N1CCC(n2c(=O)n(Cc3ncc4cc(CN)ccc4c3CCCCO)c3cnccc32)CC1 ; system: RSV (Long)
**A:** 0.38

**Q:** // fetch log10 of EC50; item: NC1(C(=O)N2CCC3(CC2)C(=O)N(Cc2ncc4ccccc4c2-c2ccc(S(N)(=O)=O)cc2)c2cnccc23)CC1 ; system: RSV (Long)
**A:** 0.59

**Q:** // fetch log10 of EC50; item: CS(=O)(=O)N1CCC2(CC1)C(=O)N(Cc1ncc3ccccc3c1-c1cn[nH]c1)c1cnccc12 ; system: RSV (Long)
**A:** 0.41

**Q:** // fetch log10 of EC50; item: COC(=O)N1CC2(C1)C(=O)N(Cc1ncc3cc(C#N)c(F)cc3c1-c1cccnc1)c1ccccc12 ; system: RSV (Long)
**A:** 1.66

**Q:** // fetch log10 of EC50; item: NC1(C(=O)N2CCC3(CC2)C(=O)N(Cc2ncc4ccccc4c2-c2cnco2)c2cnccc23)CC1 ; system: RSV (Long)
**A:** 1.60

**Q:** // fetch log10 of EC50; item: O=c1n(Cc2ncc3ccccc3c2CCCCO)c2cnccc2n1CC(F)(F)F ; system: RSV (Long)
**A:** 1.36

**Q:** // fetch log10 of EC50; item: CN(C)C1(C(=O)N2CC3(C2)C(=O)N(Cc2ncc4ccccc4c2-c2ccc(C(N)=O)nc2)c2ccccc23)CC1 [Example 113b] ; system: RSV (Long)
**A:** 1.23
